Each recorded value in this set is attributed to PubChem BioAssay AID588675.

Measured On: Mas-related G-protein coupled receptor member X1 (Homo sapiens)
Assay: positive allosteric modulators of MrgX1, primary screen, HEK293 cells, Fluo-4 calcium flux (AID 588675);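 note: compound read alongside a low EC10 to EC30 dose of BAM8-22 agonist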
Assay Conditions: MrgX1-HEK293, Fluo-4 calcium flux, FDSS, at 10 µM
Out of some 310,000 compounds screened, about 1,900 (0.61%) were called active.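 Rule for the calls: active = plate-corrected calcium response at least 3 library SD above typical, normal starting fluorescence, not activating the receptor alone; inactive = the rest.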 The entries come from a sample that favours actives as a whole.
Can you answer with just one of these options? 1 = active, -1 = inactive

{"Molecule": "Cc1cccc(C)c1NC(=S)N(Cc1cccnc1)Cc1ccccc1Cl", "Group": 1}
{"Molecule": "COc1ccc(C(=O)OCC(=O)NCC2CCCCC2)cc1S(=O)(=O)N1CCCc2ccccc21", "Group": -1}
{"Molecule": "CCCC1OC23CCCCC2C(C#N)(C#N)C1(C#N)C(=N)O3 (stereo not given)", "Group": -1}
{"Molecule": "COC(=O)Cc1[nH]n(-c2nc3ccccc3s2)c(=O)c1C(C)=Nc1ccc(OC)cc1", "Group": -1}

Request: # fetch the recorded call for `Oc1ccc(C2Nc3cccc4cccc(c34)N2)cc1` here
Response: -1
